What activity at 50 µM was measured for each of the following?
- System: Arabidopsis thaliana
- EXPERIMENT DESCRIPTION: Arabidopsis thaliana root growth inhibition
- Format: in vivo
- RUN PARAMETERS: 168 h, root length ratio vs DMSO control, 50 μM compound, lower values indicate shorter root, larger effect, read-out: Arabidopsis (relative to DMSO)
Write the number in % without appending the unit.

Briefly, activity at 50 µM measured for O=C(O)C1CN(C(=O)c2cc(-c3ccccc3)[nH]n2)c2ccccc21 (stereo not drawn) [IML-125] : 45

Lab note: O=C(c1ccc2[nH]ncc2c1)N1CCC(Nc2ccccc2)C1 (stereo not drawn) [IML-204] gave activity at 50 µM of 35

For CCn1cc(-c2cccc(NC(=O)c3cccc(OC)c3)c2)nn1 [IML-230] the compound record lists activity at 50 µM as 29

###

- EXPERIMENTAL TARGET: Tobacco CGS (Nicotiana tabacum, UniProt Q9ZPL5)
- Sequence (Q9ZPL5 79-540): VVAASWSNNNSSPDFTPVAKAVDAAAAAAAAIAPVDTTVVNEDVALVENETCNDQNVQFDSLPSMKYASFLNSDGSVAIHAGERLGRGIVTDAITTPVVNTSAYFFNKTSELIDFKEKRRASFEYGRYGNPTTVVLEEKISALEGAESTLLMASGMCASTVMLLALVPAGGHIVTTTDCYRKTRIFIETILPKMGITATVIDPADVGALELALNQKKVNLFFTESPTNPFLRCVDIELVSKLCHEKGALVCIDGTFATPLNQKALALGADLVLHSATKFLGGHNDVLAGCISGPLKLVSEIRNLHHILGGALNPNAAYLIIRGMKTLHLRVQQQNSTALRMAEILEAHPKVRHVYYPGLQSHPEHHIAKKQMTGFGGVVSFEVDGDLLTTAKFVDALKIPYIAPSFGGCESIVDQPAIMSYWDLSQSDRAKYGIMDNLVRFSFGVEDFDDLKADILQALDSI
- EXPERIMENT DESCRIPTION: Malachite Green Phosphate assay of direct CGS activity
- Type: biochemical
- Set-up: 6xHIS (cleaved yes); GB1 solubility tag (cleaved yes); made in house; host or cells: E. coli BL-21
- RUN PARAMETERS: 2 h; 50 μM compound, 1 μM CGS, two-hour incubation at 25° C.; read-out: Malachite Green Phosphate Assay (% to DMSO, 50 μM)
The label YES is reserved for remaining activity at 50 µM strictly under 20%; NO covers values equal to or above it.

Ask: I wonder whether CCc1nc(-c2cc(CC(=O)O)cc(NC(=O)c3cccc(OC)c3)c2)no1 has remaining activity at 50 µM below 20%. Can you tell?
Reply: NO

Ask: Hello, I'm reviewing records and need to know if remaining activity at 50 µM of COc1ccc(Cc2nc(-c3cccc(NC(=O)c4cccc(F)c4)c3)no2)cc1 is below 20%. Could you check?
Reply: YES

Ask: Report whether reported remaining activity at 50 µM is lower than 20% (strictly) for COc1cccc(C(=O)Nc2cccc(-c3cn(Cc4ccccc4)nn3)c2)c1
Reply: NO

Ask: Determine if O=C(Nc1cccc(-c2csc(Nc3ccc(C(=O)O)c(O)c3)n2)c1)c1ccccc1 shows remaining activity at 50 µM strictly lower than 20%.
Reply: NO

Ask: API: query returns whether the molecule falls strictly under 20% in remaining activity at 50 µM. Query: Cc1cc(O)nc(-c2cccc(NC(=O)c3c(O)cccc3F)c2)n1
Reply: YES

Ask: Please state whether remaining activity at 50 µM is below 20% for CCc1nc(-c2cccc(NC(=O)c3cccc(OC)c3)c2)no1
Reply: YES

Ask: # strict comparison: is reported remaining activity at 50 µM < 20%? input = CCn1cc(-c2cccc(NC(=O)c3cccc(OC)c3)c2)nn1
Reply: NO

Ask: Is the reported remaining activity at 50 µM for Cc1cc(O)nc(C(=O)Nc2cccc(-c3nc(C)cc(O)n3)c2)c1 strictly below 20%?
Reply: YES

###

- EXPERIMENTAL TARGET: Tobacco CGS (Nicotiana tabacum, UniProt Q9ZPL5)
- EXPERIMENT DESCRIPTION: Micro Scale Thermophoresis (MST) direct binding to CGS
- Set-up: 6xHIS (N, cleaved yes); GB1 solubility tag (N, cleaved yes); made in house; host or cells: E. coli BL21
- RUN PARAMETERS: score 0-5; binding to labelled Tobacco CGS
Kindly state MST Tobacco (0-5) for each of the entries shown.
Hey, just send me the number, nothing else.

The recorded MST Tobacco (0-5) for COc1cccc(C(=O)Nc2cccc(-c3cn(Cc4ccccc4)nn3)c2)c1 is 5

MST Tobacco (0-5) reported for this compound COc1ccnc(C(=O)Nc2cccc(-c3nc(C)cc(=O)[nH]3)c2)c1 : 4

Entry O=C(Nc1cccc(-c2csc(Nc3ccc(C(=O)O)c(O)c3)n2)c1)c1ccccc1 ; MST Tobacco (0-5) = 4

MST Tobacco (0-5) reported for this compound CCc1ccccc1NC(=O)CN(C)C(=O)c1ccc2nc[nH]c2c1 : 5

Record CCc1ccccc1NC(=O)CNC(=O)c1ccc2nn[nH]c2c1 , field MST Tobacco (0-5): 5

MST Tobacco (0-5) reading for COc1ccc(Cc2nc(-c3cccc(NC(=O)c4ccccc4F)c3)no2)cc1 : 2

Entry Cc1ccc(C(=O)Nc2cccc(-c3nc(C)cc(O)n3)c2)nc1 , MST Tobacco (0-5) reported as 3

Value of MST Tobacco (0-5) reported for the compound CCc1ccccc1NC(=O)CNC(=O)c1ccc2c(c1)nnn2CC is 4

O=C(CNC(=O)c1ccc2[nH]ncc2c1)Nc1ccccc1 has a reported MST Tobacco (0-5) of 3

###

Please provide measured MST Tobacco (0-5) for the entries that follow.
- EXPERIMENTAL TARGET: Tobacco CGS (Nicotiana tabacum, UniProt Q9ZPL5)
- EXPERIMENT DESCRIPTION: Micro Scale Thermophoresis (MST) direct binding to CGS
- Design: 6xHIS (N, cleaved yes); GB1 solubility tag (N, cleaved yes); made in house; host or cells: E. coli BL21
- RUN PARAMETERS: score 0-5; binding to labelled Tobacco CGS
- Procedure: The direct binding of the compounds of the embodiments to the CGS was tested by Micro Scale Thermophoresis (MST). In the MST assay, the CGS protein was labelled with a fluorophore, the samples were heated, and changes in fluorescence were measured as a function of the ligand concentration. […] The MST binding curves were then measured using the Monolith NT.115 apparatus by incubating the labelled protein with the indicated compounds in a dose-response manner.

Considering Cc1cc(=O)[nH]c(-c2ccc(NC(=O)c3c(O)cccc3F)cc2)n1 , its MST Tobacco (0-5) with Tobacco CGS (Nicotiana tabacum, UniProt Q9ZPL5) was recorded as 1

Considering CC(=O)Nc1cccc(NC(=O)CNC(=O)c2ccc3nn[nH]c3c2)c1 , its MST Tobacco (0-5) with Tobacco CGS (Nicotiana tabacum, UniProt Q9ZPL5) was recorded as 5

The value of MST Tobacco (0-5) recorded for Cc1cc(O)nc(-c2cccc(NC(=O)c3c(O)cccc3F)c2)n1 when tested on Tobacco CGS (Nicotiana tabacum, UniProt Q9ZPL5) reads 3

Log: Tobacco CGS (Nicotiana tabacum, UniProt Q9ZPL5), molecule COc1cccc(C(=O)Nc2cccc(-c3nc(C)cc(=O)[nH]3)c2)c1 , MST Tobacco (0-5) = 3

The value of MST Tobacco (0-5) recorded for CCc1nc(-c2cccc(NC(=O)c3cccc(OC)c3)c2)no1 when tested on Tobacco CGS (Nicotiana tabacum, UniProt Q9ZPL5) reads 2

###

- System: Arabidopsis thaliana
- EXPERIMENT DESCRIPTION: Arabidopsis thaliana root growth inhibition
- Format: in vivo
- RUN PARAMETERS: 168 h, root length ratio vs DMSO control, 50 μM compound, lower values indicate shorter root, larger effect, read-out: Arabidopsis (relative to DMSO)
Quick rule: activity at 50 µM of at least 9% means Criterion met, below that means Criterion not met.

Ask: API: above_or_equal(metric=activity at 50 µM, cutoff=9%) for item CCc1noc(-c2cccc(NC(=O)c3cccc(OC)c3)c2)n1 [IML-216]
Reply: Criterion met

Ask: Determine whether this molecule has activity at 50 µM no lower than 9%: Cc1cc(O)nc(C(=O)Nc2cccc(-c3nc(C)cc(O)n3)c2)c1 [IML-64]
Reply: Criterion met

Ask: Record CCc1nc(-c2cncc(NC(=O)c3cccc(OC)c3)c2)no1 [IML-229] ; criterion: activity at 50 µM no lower than 9%. Met?
Reply: Criterion met

Ask: State whether the measured activity at 50 µM reaches 9%, counting equality as reaching it, for CCc1nc(-c2cccc(NC(=O)c3cccc(OC)c3)c2)no1 [IML-215]
Reply: Criterion not met

Ask: Please indicate if the recorded activity at 50 µM for COc1cccc(-c2cc(C(=O)N3C[C@H](C(=O)O)c4ccccc43)no2)c1 [IML-238] meets or exceeds 9%.
Reply: Criterion not met

Ask: Dear colleague, could you confirm whether O=C(O)C1CN(C(=O)c2cnn(-c3ccccc3)c2)c2ccccc21 (stereo not shown) [IML-162] has activity at 50 µM at or above 9%?
Reply: Criterion met

Ask: Check if activity at 50 µM >= 9% (inclusive). Item: O=C(O)C1CN(C(=O)c2cc(-c3cccnc3)on2)c2ccccc21 (stereo not shown) [IML-180]
Reply: Criterion met

Ask: Answer whether activity at 50 µM of O=C(c1ccc2[nH]ncc2c1)N1CCCC(Nc2ccccc2)C1 (stereo not shown) [IML-203] is greater than or equal to 9%.
Reply: Criterion met

Ask: Decide: activity at 50 µM of COc1cccc(C(=O)Nc2cccc(-c3cn(Cc4ccccc4)nn3)c2)c1 [IML-69] >= 9%?
Reply: Criterion met

Ask: Threshold query (activity at 50 µM >= 9%) on O=C(O)C1CN(C(=O)c2cc(-c3ccccc3Cl)on2)c2ccccc21 (stereo not shown) [IML-167]
Reply: Criterion not met

Ask: Hello, I need to know if O=C(O)C1Cc2ccccc2N1C(=O)c1cc(-c2ccccc2)on1 (stereo not shown) [IML-163] has measured activity at 50 µM not below 9%. Thanks!
Reply: Criterion not met

Ask: API: above_or_equal(metric=activity at 50 µM, cutoff=9%) for item O=C(O)C1CN(C(=O)c2cc(-c3cccc(Cl)c3)on2)c2ccccc21 (stereo not shown) [IML-181]
Reply: Criterion not met

Ask: Has O=C(O)CC1CN(C(=O)c2cc(-c3ccccc3)on2)c2ccccc21 (stereo not shown) [IML-164] a recorded activity at 50 µM greater than or equal to 9%?
Reply: Criterion not met

Ask: Item O=C(CNC(=O)c1ccc2[nH]ncc2c1)Nc1ccccc1 [IML-134] with activity at 50 µM of 9% or above?
Reply: Criterion met

Ask: API: above_or_equal(metric=activity at 50 µM, cutoff=9%) for item O=C(O)C1CN(C(=O)c2cc(-c3ccccc3)on2)c2ccccc21 (stereo not shown) [IML-124]
Reply: Criterion not met

Ask: Threshold query (activity at 50 µM >= 9%) on CCc1ccc(C(=O)Nc2cccc(-c3nc(C)cc(=O)[nH]3)c2)cc1 [IML-24]
Reply: Criterion met

Ask: Is reported activity at 50 µM greater than or equal to 9% here: O=C(Nc1cccc(-c2cn(Cc3ccccc3)nn2)c1)c1cccc(Cl)c1 [IML-232]
Reply: Criterion met

Ask: Quick check, activity at 50 µM >= 9%? COc1cccc(-c2cc(C(=O)N3CC(C(=O)O)c4ccccc43)no2)c1 (stereo not shown) [IML-166]
Reply: Criterion not met
